Assay: Toxicity liver stage against HepG2, at 10uM
Format: cell-based
Parameters: test concentration 10 uM, cell line HepG2-A16-CD81EGFP
Conditions: human, HepG2-A16-CD81EGFP cells; read-out: INHIBITION
Recorded cytotoxicity at 10 µM by entry
REPORTED_ENDPOINT: cytotoxicity at 10 µM (%)

[[record]]
compound = "CN1CCCCc2c1nc1c(c2N)CCCC1"
reported_endpoint = "cytotoxicity at 10 µM"
observed_measurement = -0.675

[[record]]
compound = "COC(=O)c1ccc(N2CCC(N(C)c3ccccc3)CC2)nn1"
reported_endpoint = "cytotoxicity at 10 µM"
observed_measurement = -4.92

[[record]]
compound = "Fc1ccc(CN2CCCC2Cn2cccn2)c2ncccc12 (configuration not stated)"
reported_endpoint = "cytotoxicity at 10 µM"
observed_measurement = -5.11

[[record]]
compound = "CO[C@H]1CCN(C(=O)c2cc(C)on2)[C@H]1Cc1ccncc1"
reported_endpoint = "cytotoxicity at 10 µM"
observed_measurement = 1.2

[[record]]
compound = "Cc1cc(CCC(=O)N2CC[C@H](O)C2)ccc1Br"
reported_endpoint = "cytotoxicity at 10 µM"
observed_measurement = 2.35

[[record]]
compound = "COCCN1CCC2(COCc3cnc(N4CCOCC4)nc32)C1 (configuration not stated)"
reported_endpoint = "cytotoxicity at 10 µM"
observed_measurement = 11.6

[[record]]
compound = "O=C(NCCc1noc(C2CCCO2)n1)c1cn2ccsc2n1 (configuration not stated)"
reported_endpoint = "cytotoxicity at 10 µM"
observed_measurement = -4.4

[[record]]
compound = "COCCN1C(=O)CC[C@@H]2[C@H]1CCN2Cc1cccc(C#N)c1"
reported_endpoint = "cytotoxicity at 10 µM"
observed_measurement = -33.1

[[record]]
compound = "COc1ccc(OC2CCN(C(=O)c3ccc(C(C)=O)s3)CC2)cc1"
reported_endpoint = "cytotoxicity at 10 µM"
observed_measurement = 3.58

[[record]]
compound = "OCCOc1nc(-c2ccccc2Cl)no1"
reported_endpoint = "cytotoxicity at 10 µM"
observed_measurement = -10.5

[[record]]
compound = "Cc1noc(C)c1S(=O)(=O)N1CCC(Oc2ccccn2)CC1"
reported_endpoint = "cytotoxicity at 10 µM"
observed_measurement = 0.67

[[record]]
compound = "Cc1cc(C)n(CC(=O)N2CCC(c3ccn4nccc4n3)CC2)n1"
reported_endpoint = "cytotoxicity at 10 µM"
observed_measurement = -0.0825


* * *

Below is a list of entries, each paired with its recorded cytotoxicity at 10 µM value.
Assay: Toxicity liver stage against HepG2, at 10uM
Format: cell-based
Parameters: test concentration 10 uM, cell line HepG2-A16-CD81EGFP
Conditions: human, HepG2-A16-CD81EGFP cells; read-out: INHIBITION
REPORTED_ENDPOINT: cytotoxicity at 10 µM (%)

[[record]]
molecule = "COc1cc(C2c3c(n[nH]c3C)N=C3COC(=O)C32)cc(Br)c1O (configuration not stated)"
reported_endpoint = "cytotoxicity at 10 µM"
observed_measurement = 75.4

[[record]]
molecule = "Cc1ccc(C(=O)NCc2cccnc2N(C)C)o1"
reported_endpoint = "cytotoxicity at 10 µM"
observed_measurement = -6.86

[[record]]
molecule = "CC(C)NC(=O)NC[C@H]1OC[C@@H](NCc2ccc(F)cc2)[C@@H]1O"
reported_endpoint = "cytotoxicity at 10 µM"
observed_measurement = 2.07

[[record]]
molecule = "Cc1cnn(CC2CN(CC(=O)Nc3cccnc3)CCO2)c1 (configuration not stated)"
reported_endpoint = "cytotoxicity at 10 µM"
observed_measurement = 8.1

[[record]]
molecule = "Cc1nc(CC(=O)N2CCCCC2Cn2cccn2)cs1 (configuration not stated)"
reported_endpoint = "cytotoxicity at 10 µM"
observed_measurement = -1.55

[[record]]
molecule = "Cn1ccnc1CN1CCCCC1c1nc(-c2ccccc2)no1 (configuration not stated)"
reported_endpoint = "cytotoxicity at 10 µM"
observed_measurement = -47.5

[[record]]
molecule = "Cc1cc(C2CCCN(C(=O)COc3ccccc3F)C2)n[nH]1 (configuration not stated)"
reported_endpoint = "cytotoxicity at 10 µM"
observed_measurement = 7.45

[[record]]
molecule = "Cc1ccc2c(c1)N(C(=O)C1CCCOC1)CCC2 (configuration not stated)"
reported_endpoint = "cytotoxicity at 10 µM"
observed_measurement = 5

[[record]]
molecule = "COCC1CN(C(=O)c2cccc(C)n2)Cc2ncnn2C1 (configuration not stated)"
reported_endpoint = "cytotoxicity at 10 µM"
observed_measurement = 3.84

[[record]]
molecule = "c1cc(-c2cnccn2)cc(-c2ccn(CCN3CCCC3)n2)c1"
reported_endpoint = "cytotoxicity at 10 µM"
observed_measurement = -11.5

[[record]]
molecule = "CC(C)Oc1ccc(CNC(=O)C2CCS(=O)(=O)C2)cn1 (configuration not stated)"
reported_endpoint = "cytotoxicity at 10 µM"
observed_measurement = 0.788

[[record]]
molecule = "C=C(C)CNC1CCCN(Cc2noc(C3CC3)n2)C1 (configuration not stated)"
reported_endpoint = "cytotoxicity at 10 µM"
observed_measurement = -4.56


All values here come from ChEMBL document CHEMBL4513216.
